- target-under-test: MAPKAPK2 (MK-2) (Homo sapiens)
- Sequence (P49137 whole entry, species assumed): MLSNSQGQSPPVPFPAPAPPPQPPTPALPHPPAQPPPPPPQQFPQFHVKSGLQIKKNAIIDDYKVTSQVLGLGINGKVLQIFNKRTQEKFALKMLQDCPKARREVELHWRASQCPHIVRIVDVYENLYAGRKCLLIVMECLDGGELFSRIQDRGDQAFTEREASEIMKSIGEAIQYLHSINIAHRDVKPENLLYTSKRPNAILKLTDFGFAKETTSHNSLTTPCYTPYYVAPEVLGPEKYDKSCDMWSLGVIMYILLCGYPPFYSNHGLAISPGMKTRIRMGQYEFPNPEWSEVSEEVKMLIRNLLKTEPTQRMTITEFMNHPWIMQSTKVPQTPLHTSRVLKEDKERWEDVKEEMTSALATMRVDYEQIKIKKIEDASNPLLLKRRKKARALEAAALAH
- protocol-details: Determination of MK-2 IC50 (HSP-peptide phosphorylation, anion exchange resin capture assay)
- Format: biochemical
- details: read-out: MK-2 Avg. IC50
measured-quantity: IC50 (nM)

(P) O=C(O)c1c2c(nn1CCCNCCc1ccc([N+](=O)[O-])cc1)-c1ccncc1CC2 [Example 69]
(Q) CS(=O)(=O)c1cccc(-c2cc3c(cn2)CCc2c-3nn(CCCN)c2C(=O)O)c1 [Example 11]
(R) O=C1NCC(CCCNCCc2ccc(Cl)cc2)n2nc3c(c21)CCc1cnccc1-3 (stereo not shown) [Example 178]
Input line: Hey, quick one: sort these by IC50, largest value first please. Give the order by naming the labels one after another as requested.
Output line: R, P, Q
(R: 16100 nM, P: 765 nM, Q: 39.1 nM)

* * *

- target-under-test: MAPKAPK2 (MK-2) (Homo sapiens)
- protocol-details: Determination of MK-2 IC50 (HSP-peptide phosphorylation, anion exchange resin capture assay)
- Type: biochemical
- details: read-out: MK-2 Avg. IC50
pIC50: −log10 of the molar value.
measured-quantity: pIC50

Study these solved cases before continuing.
O=C(O)c1c2c(nn1CCCNCCc1ccc(-c3ccoc3)cc1)-c1ccncc1CC2 [Example 23]    6.90
N#CC(N)CCn1nc2c(c1C(=O)O)CCc1cnccc1-2 (centres unmarked) [Example 207]    4.43
O=C(O)c1c2c(nn1CCCNS(=O)(=O)Cc1ccccc1)-c1cc(-c3cnc4ccccc4c3)ncc1CC2 [Example 48]    6.43
NCCCn1nc2c(c1C(=O)O)CCc1cnc(-c3cc(F)cc(F)c3)cc1-2 [Example 6]    7.55
O=C1NCCn2nc3c(c21)CCc1cnc(-c2ccc(O)cc2)cc1-3 [Example 19]    7.06
O=C1NCCn2nc3c(c21)CCc1cnc(N2CCSCC2)cc1-3 [Example 203]    4.45

(I) Cc1ccc(CCNCCCn2nc3c(c2C(=O)O)CCc2cnccc2-3)cc1 [Example 72]
(II) CC(C)(C)c1ccc(-c2ccc(CCNCCCn3nc4c(c3C(=O)O)CCc3cnccc3-4)cc2)cc1 [Example 33]
(III) O=C1NCCn2nc3c(c21)CCc1cnc(-n2ccnc2)cc1-3 [Example 13]
Input line: // smallest pIC50 at index 0, largest at the end Please express your ranking as an ordered list of the labels.
Output line: I, II, III

(P) NCCCCn1nc2c(c1C(=O)O)CCc1cnccc1-2 [Example 113]
(Q) NCCCn1nc2c(c1C(=O)O)CCc1cnc(-c3ccc(C(F)(F)F)cc3)cc1-2 [Example 15]
Input line: // which entry has the larger pIC50 value, P or Q ? Lab note: record the label of whichever item you select.
Output line: Q

* * *

- target-under-test: MAPKAPK2 (MK-2) (Homo sapiens)
- protocol-details: Determination of MK-2 IC50 (HSP-peptide phosphorylation, anion exchange resin capture assay)
- Type: biochemical
- details: Table 1, phenoxypyrazole MK-2 inhibitors; read-out: MK-2 Avg, IC50
pIC50: −log10 of the molar value.
measured-quantity: pIC50

NCCCn1nc2c(c1C(=O)O)CCc1cc(O)c(-c3cccc([N+](=O)[O-])c3)cc1-2    6.08

(1) O=C1NCCCn2nc3c(c21)CCc1cc(O)c(-c2cccc([N+](=O)[O-])c2)cc1-3
(2) CCOC(=O)c1[nH]nc2c1CCc1cc(O)ccc1-2
(3) COc1cc2c(cc1-c1cccc(C#N)c1)-c1nn(CCCNC(=O)OC(C)(C)C)c(C(=O)O)c1CC2
(4) NCCCn1nc2c(c1C(=O)O)CCc1cc(O)c(N)cc1-2
(5) COc1cc2c(cc1-c1ccccc1Cl)-c1nn(CCCNC(=O)OC(C)(C)C)c(C(=O)O)c1CC2
Input line: Ordering criterion: pIC50; begin with the maximum. Would you mind listing the labels in the order asked for?
Output line: 1, 4, 3, 5, 2
